Molecular target: Muscarinic acetylcholine receptor M2 (Homo sapiens)
Sequence (P08172 whole entry): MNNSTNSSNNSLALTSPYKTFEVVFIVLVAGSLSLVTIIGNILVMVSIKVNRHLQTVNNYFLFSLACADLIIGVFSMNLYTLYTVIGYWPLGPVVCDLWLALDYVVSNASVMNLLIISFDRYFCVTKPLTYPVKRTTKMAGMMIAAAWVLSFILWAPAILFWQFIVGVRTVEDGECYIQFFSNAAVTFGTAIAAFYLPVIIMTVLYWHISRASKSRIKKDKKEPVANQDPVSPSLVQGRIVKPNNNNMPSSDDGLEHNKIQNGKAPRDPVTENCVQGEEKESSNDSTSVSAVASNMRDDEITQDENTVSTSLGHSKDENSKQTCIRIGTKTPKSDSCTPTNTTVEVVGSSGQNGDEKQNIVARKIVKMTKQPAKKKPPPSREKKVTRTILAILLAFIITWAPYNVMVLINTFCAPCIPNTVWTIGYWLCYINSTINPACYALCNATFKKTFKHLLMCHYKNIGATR
Test: Activity at human muscarinic acetylcholine receptor subtype 2 expressed in CHO cells co-transfected with chimeric Gqi5 by calcium mobilization assay
propertyName: EC50

get_value(item= "CCN(Cc1ccccc1C(F)(F)F)C(=O)C1CCN(S(=O)(=O)c2ccc3[nH]ncc3c2)CC1" , readout=EC50) returns > 30 µM

###

Hi there, I'd appreciate the recorded pEC50 for every entry that follows.
Biological target: Muscarinic acetylcholine receptor M5 (Homo sapiens)
Assay: Positive allosteric modulator activity at human muscarinic acetylcholine receptor subtype 5 expressed in CHO cells by calcium mobilization assay
Format: functional, cell-based
Conditions: read-out: EC50
Answers are plain numbers, as −log10 of the molar value.

Study these solved cases before continuing.
compound: CCN(Cc1ccccc1)C(=O)C1CCN(S(=O)(=O)c2cccc(OC)c2)CC1
targetDesc: Muscarinic acetylcholine receptor M5 (Homo sapiens)
pEC50: 5.51
//
compound: CCN(Cc1ccccc1)C(=O)C1CCN(S(=O)(=O)c2ccc3nsnc3c2)CC1
targetDesc: Muscarinic acetylcholine receptor M5 (Homo sapiens)
pEC50: 5.52
//
compound: CCN(Cc1cccc(OC)c1)C(=O)C1CCN(S(=O)(=O)c2ccc3cn[nH]c3c2)CC1
targetDesc: Muscarinic acetylcholine receptor M5 (Homo sapiens)
pEC50: 5.59
//
compound: CCN(C(=O)C1CCN(S(=O)(=O)c2ccc3c(c2)CCC3)CC1)[C@H](C)c1ccccc1
targetDesc: Muscarinic acetylcholine receptor M5 (Homo sapiens)
pEC50: 6.14
//
compound: CCC(C)N(Cc1ccccc1C(F)(F)F)C(=O)C1CCN(S(=O)(=O)c2ccc3[nH]ncc3c2)CC1 (centres undefined)
targetDesc: Muscarinic acetylcholine receptor M5 (Homo sapiens)
pEC50: 6.82

Below: the item to evaluate.
get_value(item= "CCN(Cc1ccccc1Cl)C(=O)C1CCN(S(=O)(=O)c2ccc3cn[nH]c3c2)CC1" , readout=pEC50) returns 6.19

###

Target: Muscarinic acetylcholine receptor M5 (Homo sapiens, UniProt P08912)
Sequence (P08912 whole entry): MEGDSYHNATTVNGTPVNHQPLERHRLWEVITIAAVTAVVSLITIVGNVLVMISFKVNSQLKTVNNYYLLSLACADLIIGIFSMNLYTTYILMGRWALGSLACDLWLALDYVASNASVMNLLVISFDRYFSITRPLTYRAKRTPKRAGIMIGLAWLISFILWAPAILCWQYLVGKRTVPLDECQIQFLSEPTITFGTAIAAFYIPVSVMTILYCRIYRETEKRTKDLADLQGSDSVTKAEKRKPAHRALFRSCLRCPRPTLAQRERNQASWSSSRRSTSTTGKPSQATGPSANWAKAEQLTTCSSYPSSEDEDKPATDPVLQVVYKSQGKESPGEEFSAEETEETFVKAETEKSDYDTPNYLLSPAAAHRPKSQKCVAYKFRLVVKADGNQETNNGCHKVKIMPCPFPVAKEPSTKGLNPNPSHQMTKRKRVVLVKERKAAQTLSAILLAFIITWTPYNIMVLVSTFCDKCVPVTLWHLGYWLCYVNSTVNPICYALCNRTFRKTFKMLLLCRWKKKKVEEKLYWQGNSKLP
Assay: Positive allosteric modulator activity at human muscarinic acetylcholine receptor subtype 5 expressed in CHO cells by calcium mobilization assay
Format: functional, cell-based
Conditions: read-out: EC50
Hi there, I'd appreciate the recorded EC50 for every entry that follows.
One number for each entry, in nM.

entrySmiles: O=C(C1CCN(S(=O)(=O)c2ccc3[nH]ncc3c2)CC1)N(CCF)Cc1ccccc1C(F)(F)F
EC50 / nM: 1300

entrySmiles: CCN(Cc1cccc(F)c1)C(=O)C1CCN(S(=O)(=O)c2ccc3cn[nH]c3c2)CC1
EC50 / nM: 1500

entrySmiles: CCN(Cc1ccccc1OC)C(=O)C1CCN(S(=O)(=O)c2ccc3cn[nH]c3c2)CC1
EC50 / nM: 750

entrySmiles: CCN(Cc1cccc(C(F)(F)F)c1)C(=O)C1CCN(S(=O)(=O)c2ccc3cn[nH]c3c2)CC1
EC50 / nM: 5600

Below: the item to evaluate.
get_value(item= "CC(C)(C)CN(Cc1ccccc1C(F)(F)F)C(=O)C1CCN(S(=O)(=O)c2ccc3[nH]ncc3c2)CC1" , readout=EC50) returns 120

###

Experiment: Intrinsic clearance in rat liver microsomes
Type: ADME
Conditions: read-out: CLH
Hi there, I'd appreciate the recorded CLint scaled for every entry that follows.

Study these solved cases before continuing.
entrySmiles: O=C(C1CCN(S(=O)(=O)c2ccc3[nH]ncc3c2)CC1)N(Cc1ccccc1C(F)(F)F)CC1CC1
CLint scaled: > 500 mL/min/kg

entrySmiles: O=C(C1CCN(S(=O)(=O)c2ccc3[nH]ncc3c2)CC1)N(Cc1ccccc1C(F)(F)F)CC1CCC1
CLint scaled: > 500 mL/min/kg

Below: the item to evaluate.
get_value(item= "CC(C)(C)CN(Cc1ccccc1C(F)(F)F)C(=O)C1CCN(S(=O)(=O)c2ccc3[nH]ncc3c2)CC1" , readout=CLint scaled) returns > 500 mL/min/kg

###

Hi there, I'd appreciate the recorded %max for every entry that follows.
Target: Muscarinic acetylcholine receptor M5 (Homo sapiens) (UniProt P08912)
Sequence (whole entry): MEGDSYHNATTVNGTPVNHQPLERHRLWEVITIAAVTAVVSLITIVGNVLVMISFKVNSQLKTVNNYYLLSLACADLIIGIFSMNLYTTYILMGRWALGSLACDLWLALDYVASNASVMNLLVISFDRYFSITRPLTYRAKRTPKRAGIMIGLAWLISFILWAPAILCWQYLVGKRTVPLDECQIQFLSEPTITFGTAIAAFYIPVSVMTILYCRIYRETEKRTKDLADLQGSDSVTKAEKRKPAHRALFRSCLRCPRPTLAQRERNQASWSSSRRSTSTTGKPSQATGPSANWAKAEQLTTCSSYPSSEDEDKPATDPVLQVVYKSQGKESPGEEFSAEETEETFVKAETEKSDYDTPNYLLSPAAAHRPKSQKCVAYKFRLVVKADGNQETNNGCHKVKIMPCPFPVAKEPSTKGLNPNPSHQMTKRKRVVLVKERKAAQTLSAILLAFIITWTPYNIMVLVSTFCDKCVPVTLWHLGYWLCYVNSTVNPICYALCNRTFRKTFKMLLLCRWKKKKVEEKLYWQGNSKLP
Experiment: Positive allosteric modulator activity at human muscarinic acetylcholine receptor subtype 5 expressed in CHO cells by calcium mobilization assay relative to acetylcholine
Type: functional, cell-based
Answers are plain numbers, in %.

Study these solved cases before continuing.
compound: CCC(C)N(Cc1ccccc1C(F)(F)F)C(=O)C1CCN(S(=O)(=O)c2ccc3[nH]ncc3c2)CC1 (stereo not drawn)
quantitativeResult: 100
//
compound: CCN(Cc1ccccc1OC)C(=O)C1CCN(S(=O)(=O)c2ccc3cn[nH]c3c2)CC1
quantitativeResult: 92
//
compound: CCCN(Cc1ccccc1C(F)(F)F)C(=O)C1CCN(S(=O)(=O)c2ccc3[nH]ncc3c2)CC1
quantitativeResult: 94
//
compound: CCN(Cc1ccccc1)C(=O)C1CCN(S(=O)(=O)c2ccc3cn[nH]c3c2)CC1
quantitativeResult: 86
//
compound: CCN(Cc1ccccc1C)C(=O)C1CCN(S(=O)(=O)c2ccc3cn[nH]c3c2)CC1
quantitativeResult: 103
//
compound: CCN(Cc1cccc(C)c1)C(=O)C1CCN(S(=O)(=O)c2ccc3cn[nH]c3c2)CC1
quantitativeResult: 78

State recorded %max for all listed compounds.
1. CCN(Cc1ccccc1)C(=O)C1CCN(S(=O)(=O)c2ccc3nsnc3c2)CC1
2. CC(C)(C)CN(Cc1ccccc1C(F)(F)F)C(=O)C1CCN(S(=O)(=O)c2ccc3[nH]ncc3c2)CC1
3. CCN(Cc1ccccc1)C(=O)C1CCN(S(=O)(=O)c2ccc3c(c2)OCO3)CC1
4. CCN(C(=O)C1CCN(S(=O)(=O)c2ccc3occc3c2)CC1)[C@H](C)c1ccccc1
5. O=C(C1CCN(S(=O)(=O)c2ccc3[nH]ncc3c2)CC1)N(CCO)Cc1ccccc1C(F)(F)F

1: 81; 2: 104; 3: 93; 4: 80; 5: 60

State recorded %max for all listed compounds.
1. O=C(C1CCN(S(=O)(=O)c2ccc3[nH]ncc3c2)CC1)N(CCF)Cc1ccccc1C(F)(F)F
2. CCN(Cc1ccccc1)C(=O)C1CCN(S(=O)(=O)c2ccc3[nH]ncc3c2)CC1
3. CCN(Cc1cccc(C(F)(F)F)c1)C(=O)C1CCN(S(=O)(=O)c2ccc3cn[nH]c3c2)CC1
4. CCN(Cc1ccccc1)C(=O)C1CCN(S(=O)(=O)c2cccc3c2OCCO3)CC1
5. CCN(C(=O)C1CCN(S(=O)(=O)c2ccc3c(c2)CCC3)CC1)[C@H](C)c1ccccc1
6. O=C(C1CCN(S(=O)(=O)c2ccc3[nH]ncc3c2)CC1)N(Cc1ccccc1C(F)(F)F)C1CCC1
7. CCN(Cc1ccccc1)C(=O)C1CCN(S(=O)(=O)c2ccc3cccnc3c2)CC1

1. 95
2. 86
3. 59
4. 53
5. 97
6. 84
7. 66

###

Molecular target: Muscarinic acetylcholine receptor M4 (Rattus norvegicus, UniProt P08485)
Sequence (P08485 whole entry): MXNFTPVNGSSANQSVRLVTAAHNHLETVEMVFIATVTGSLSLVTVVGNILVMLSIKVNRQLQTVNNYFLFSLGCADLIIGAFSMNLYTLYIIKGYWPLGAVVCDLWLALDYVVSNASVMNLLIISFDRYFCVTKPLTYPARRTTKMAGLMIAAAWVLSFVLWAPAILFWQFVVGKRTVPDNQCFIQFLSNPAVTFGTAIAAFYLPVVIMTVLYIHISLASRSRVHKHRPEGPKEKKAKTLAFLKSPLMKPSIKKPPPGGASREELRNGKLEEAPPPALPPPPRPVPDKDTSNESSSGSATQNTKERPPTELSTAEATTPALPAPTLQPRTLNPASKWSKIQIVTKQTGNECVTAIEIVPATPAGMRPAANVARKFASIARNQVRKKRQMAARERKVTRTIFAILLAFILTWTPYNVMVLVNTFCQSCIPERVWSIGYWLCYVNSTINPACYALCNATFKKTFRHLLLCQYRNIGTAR
Test: Activity at rat muscarinic acetylcholine receptor subtype 4 expressed in CHO cells co-transfected with chimeric Gqi5 by calcium mobilization assay
Type: functional, cell-based
propertyName: EC50

Entry "CCN(Cc1ccccc1C(F)(F)F)C(=O)C1CCN(S(=O)(=O)c2ccc3[nH]ncc3c2)CC1" ; assay system Muscarinic acetylcholine receptor M4 (Rattus norvegicus, UniProt P08485); EC50 recorded at > 30 µM
